Biological target: T1, CD27 expressed on the cell surface (HT1080_CD27 cells) (human, UniProt P26842 20-260); further: test concentration or dose not given here
T1 sequence (looked up): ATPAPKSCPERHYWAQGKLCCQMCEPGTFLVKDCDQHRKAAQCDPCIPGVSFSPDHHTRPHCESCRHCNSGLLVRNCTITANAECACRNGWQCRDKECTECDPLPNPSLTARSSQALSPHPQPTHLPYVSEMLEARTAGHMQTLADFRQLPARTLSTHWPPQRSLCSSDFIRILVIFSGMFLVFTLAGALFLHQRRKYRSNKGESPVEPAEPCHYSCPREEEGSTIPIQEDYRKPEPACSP
Assay: cell-based or functional assay
We begin with a simple list: items and their reported IL-8, cross-linked by F(ab')2 fragment [abs. corr.].
Quick note: give the figure in abs. corr., leave out the unit.

>  <binder>
P018.S.10.A.A06 (antibody, V domains shown, V regions on human Ig constant parts; also called AB27_165) VH: QSVEESGGRLVTPGTPLTLTCTVSGFSLSGYHMCWVRQAPGKGLQYIGIIGSNGNTYYASWAKSRSTITRNTNENTVTLKMTSLTTEDTATYFCARSSGWGARFNLWGQGTLVTVSS VL: AQVLTQTPSSVSAAVGGTVTINCQASQSIYNDNELSWYQQKPGQPPKLLIYKASTLASGVPLRFSGSGSGTQFTLTISDVQSDVAATYYCLGGGMTPSDTTFGGGTEVVVK

>  <unit-text>
abs. corr.

>  <reported-result>
1.12

$$$$
>  <binder>
P018.S.03.A.D06 (antibody, V domains shown, V regions on human Ig constant parts; also called AB27_51) VH: QSLEESGGRLVTPGTPLTLTCTASGFSLSSYWMSWVRQAPGKGLEWIGYIYAGSGSAYYASWVKGRFTISKTSTTVDLKISSPTTEDTATYFCGRGNYDGYINVYDLWGPGTLVTVSS VL: DVVMTQTPSSVEAAVGGTVTIKCQASQSIGSYLAWYQKKPGQPPKLLIYAAANLAAGVPSRFKGSGSGTDFTLTINDLESADAATYYCQNNNGAYGSAYVGAFGGGTEVVVK

>  <unit-text>
abs. corr.

>  <reported-result>
1.05

$$$$

Now let's try a different one.
Reported IL-8, cross-linked by F(ab')2 fragment [abs. corr.] for P018.S.05.A.B02 (antibody, V domains shown, V regions on human Ig constant parts; also called AB27_83) VH: QSLEESGGRLVTPGTPLTLTCKVSGFSLSSYDMIWVRQAPGKGLEWIGIVSTGGSAGYASWAKGRFTITKTSTTVDLKITSPTTEDTATYFCARIISGGRDLWGPGTLVTVSS VL: DIVMTQTPASVEAAVGGTVTIKCQASESISSRLAWYQQKPGQPPKLLIYSASTLAFGVSSRFKGSGSGTQFTLTISDLESADAATYYCQSYYYSSTASYASNNAFGGGTEVVVK was 1.95
